- measurement_target: IDO1 (Homo sapiens (Human), UniProt P14902)
- Sequence (P14902 whole entry): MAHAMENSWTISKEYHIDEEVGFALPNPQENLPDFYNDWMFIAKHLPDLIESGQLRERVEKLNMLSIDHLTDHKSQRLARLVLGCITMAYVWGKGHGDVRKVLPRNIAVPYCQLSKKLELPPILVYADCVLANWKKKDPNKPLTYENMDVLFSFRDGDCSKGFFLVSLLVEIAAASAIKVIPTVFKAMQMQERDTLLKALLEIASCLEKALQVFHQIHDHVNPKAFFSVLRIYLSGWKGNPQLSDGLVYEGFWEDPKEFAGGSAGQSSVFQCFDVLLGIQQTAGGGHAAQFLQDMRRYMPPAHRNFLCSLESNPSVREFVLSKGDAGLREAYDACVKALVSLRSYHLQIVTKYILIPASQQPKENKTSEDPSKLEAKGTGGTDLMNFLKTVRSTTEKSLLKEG
- assay_method_text: IDO1 Enzyme Assay
- experimental_parameters: read-out: IDO1 Enzyme Assay, IC50; HIS-tagged recombinant IDO1, 40 nM
measured_quantity: IC50 (nM)

compound O=C(O)CCSc1nonc1/C(=N/O)Nc1ccc(F)c(Br)c1 , IC50 observed: 48.2

Input O=C(CSc1nonc1/C(=N/O)Nc1ccc(F)c(Br)c1)N1CC[C@H](O)[C@@H](O)C1 . Output IC50: 62.3

Query C[C@@H](O)[C@@H](CO)NC(=O)CSc1nonc1/C(=N/O)Nc1ccc(F)c(Br)c1 yields IC50 of 53.9

Looking up CC(=O)NCCSc1nonc1/C(=N/O)Nc1ccc(F)c(C(F)F)c1 , I see its IC50 listed as 54
